Test system: fibrin- and LPS-induced microglia activation
measurement-protocol: cells
Format: cell-based, rat
experimental-setup: Rattus norvegicus, Microglia; HTS hit classification; read-out: Hit
I'd appreciate it if you could supply inhibition at 10 µM values for the items below.

Prompt: Give the measured inhibition at 10 µM of COc1c(C)c2c(c(O)c1C/C=C(\C)CCC(=O)O)C(=O)OC2 [Mycophenolic acid, reference compound] .
Completion: > 50%

Prompt: Field request: inhibition at 10 µM | item: C=C(CC)C(=O)c1ccc(OCC(=O)O)c(Cl)c1Cl [Ethacrynic acid, reference compound]
Completion: > 50%

Prompt: Field request: inhibition at 10 µM | item: CC(=O)OCC(=O)[C@@]1(O)CC[C@H]2[C@@H]3CCC4=CC(=O)C=C[C@]4(C)[C@@]3(Cl)[C@@H](Cl)C[C@@]21C [Dichlorisone acetate, reference compound]
Completion: > 50%
